assay: MELAS cybrid and Rieske KO viability enhancers – cell-based, MELAS cybrids, Rieske KO mouse fibroblasts, CellTiter-Glo, primary screen (AID 1508586); details: MELAS cybrid survival, low glucose, CellTiter-Glo 48 h;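 further: z relative to plate mean and SD of compound and empty wells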
The source made the active and inactive calls.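 How the source made its calls: active means mean z-score across replicates of 1.96 or higher in either the MELAS or the Rieske mutant cell line; inactive means the rest.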
Pick from true = active, false = inactive when you respond.

// known answers, use as guide
COC(=O)Nc1nc2ccc(SC(C)C)cc2[nH]1 = false
COc1cc(F)c(-c2nc3c(cnn3Cc3cccs3)[nH]2)c(F)c1 = false
COC(=O)c1c(NC(=O)CCc2ccccc2)c2cc(NC(C)C(C)(C)O)cnc2n1C (stereo unspecified) = false
N#CC(=Cc1ccc(O)c(O)c1)C(=O)NCc1ccccc1 = false

Given CN(CC1COCCO1)S(=O)(=O)Nc1ccc2ccc3ncc(-c4cnn(C)c4)cc3c(=O)c2c1 (stereo unspecified) , state the outcome it received in this test.
true

Given CN(C)c1ccc(/C=C/CN2CC(=O)N(CCCN3CCCC3=O)CC(O)C2)cc1 (stereo unspecified) , state the outcome it received in this test.
false

###

assay: viability loss with induced miR-34 in A549 – imaging, A549 dox-inducible miR-34, nuclei and caspase counts, primary screen (AID 1347080); settings: A549 miR-34 inducible, Hoechst nuclei count, 48 h; measured here: total cells without miR-34 induction
// cell count lookup, one value per entry
Field format: numeric only.

CCCCCCCCCCCCCC(=O)N[C@@H](C)[C@H](O)c1ccccc1 = 6200
CCCCCCCCCCOCCC(=O)O = 5970
CN1CCC2(CCN3CCc4c(oc5ccccc45)C3C2)N(C)C1=O (stereo unspecified) = 7300
Cn1cc(/C=C/C(=O)N2CCc3[nH]nc(-c4ccccc4F)c3C2)cn1 = 8920
CC(C)C1=NOC(c2nc(-c3cccc4ccccc34)no2)C1 (stereo unspecified) = 9200

Given the entry `Fc1ccc(C(OCCCc2cnc[nH]2)c2ccc(F)cc2)cc1` , report its measured cell count.
9060

###

experiment: compounds altering HSF1 focus formation in cells – imaging, Selleck Cancer Library (AID 1347162); details: human cells, HSF1 nuclear foci imaging, at 10 µM; stronger effect = lower value
Could you mark each record 1 if its plate-normalised HSF1 focus index falls strictly under 1, and 0 if it equals or exceeds it?

// known answers, use as guide
C=C1/C(=C/C=C2\CCC[C@]3(C)[C@@H]([C@H](C)/C=C/[C@@H](C)C(C)C)CC[C@@H]23)C[C@@H](O)C[C@@H]1O = 0
O=C1c2ccccc2C(=O)c2c(NCCc3ccc(O)cc3)ccc(NCCc3ccc(O)cc3)c21 = 0
O=c1c2ccccc2[nH]c(=S)n1CCN1CCC(=C(c2ccc(F)cc2)c2ccc(F)cc2)CC1 = 0
CO[C@H]1C[C@@H]2CC[C@@H](C)[C@@](O)(O2)C(=O)C(=O)N2CCCC[C@H]2C(=O)O[C@H]([C@@H](C)C[C@@H]2CC[C@@H](OCCO)[C@H](OC)C2)CC(=O)[C@H](C)/C=C(\C)[C@@H](O)[C@@H](OC)C(=O)[C@H](C)C[C@H](C)/C=C/C=C/C=C/1C = 0
CCCCCCCCCCCCCCCCCCOP(=O)(O)OC1CC[N+](C)(C)CC1 = 1
CC1=NN(c2ccc(C(=O)O)cc2)C(=O)/C1=C\c1ccc(-c2cc(C)c(C)cc2[N+](=O)[O-])o1 = 0

Here's the next entry for you.
Is 1 strictly greater than the compound's reported plate-normalised HSF1 focus index? compound: `COc1c/c(=C2/C=c3ccccc3=N2)[nH]/c1=C\c1[nH]c(C)cc1C`
1

###

assay: drug combination growth inhibition, ovarian cancer – cell-based, oncology-focused library, rucaparib conditional, profiling panel (AID 1508598); settings: patient-derived ovarian cancer cells, CellTiter-Glo viability, 144 h; at 0.000305 µM; OCI-P5x cells; without rucaparib; stronger effect = lower value
*1 amine or outer side, *2 acyl side, *3 side chain or, on linkers, in order; H or OH if unused. Where a SMILES comes first, the peptide text is derived from it. Bridges are numbered along the chain shown (N, C = ends). Roman numbers before positions name the chains, in order. [ ]: non-standard residue; d: D form. Hexamethylenediamine = C(CCCN[*:2])CCN[*:1]; Dip = N[C@H](C(=O)O)C(c1ccccc1)c1ccccc1; Chg = N[C@H](C(=O)O)C1CCCCC1; NMeA = CN[C@@H](C)C(=O)O
// viability lookup, one value per entry
Kindly provide the numeric value in % only, without the unit symbol.

Illustrative cases are given below, each with its answer.
CN(C)CCOc1ccc(-c2nc(-c3ccc4c(c3)CCC4=NO)c(-c3ccncc3)[nH]2)cc1 = 88.8
CN[C@@H](C)C(=O)N[C@H](C(=O)N1CCC[C@H]1C(=O)N[C@H](C(=O)NCCCCCCNC(=O)[C@@H](NC(=O)[C@@H]1CCCN1C(=O)[C@@H](NC(=O)[C@H](C)NC)C1CCCCC1)C(c1ccccc1)c1ccccc1)C(c1ccccc1)c1ccccc1)C1CCCCC1 (I: H-[NMeA][Chg]P[Dip] / II: H-[NMeA][Chg]P[Dip]; linker I:C-II:C via Hexamethylenediamine) = 93.2
O=c1[nH]c(=O)n([C@@H]2C[C@H](O)[C@@H](CO)O2)cc1F = 24.9
CO[C@H]1C[C@H]2CC[C@@H](C)[C@@](O)(O2)C(=O)C(=O)N2CCCC[C@H]2C(=O)O[C@H]([C@H](C)C[C@@H]2CC[C@H](OC(=O)C(C)(CO)CO)[C@H](OC)C2)CC(=O)[C@H](C)/C=C(\C)[C@@H](O)[C@@H](OC)C(=O)[C@H](C)C[C@H](C)/C=C/C=C/C=C/1C = 85

Given the entry `COc1ccc(C2=N[C@H](c3ccc(Cl)cc3)[C@@H](c3ccc(Cl)cc3)N2C(=O)N2CCNC(=O)C2)c(OC(C)C)c1` , report its measured viability.
86.6

###

assay: MELAS cybrid and Rieske KO viability enhancers – cell-based, MELAS cybrids, Rieske KO mouse fibroblasts, CellTiter-Glo, primary screen (AID 1508586); conditions: MELAS cybrid survival, low glucose, CellTiter-Glo 48 h; stronger effect = higher value;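 further: z relative to plate mean and SD of compound and empty wells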
Please use Satisfied whenever z-score is not below -0.3, and Not satisfied whenever it is.

Fc1cccc(F)c1-c1nc2c(cnn2Cc2cccs2)[nH]1 = Satisfied
COC(=O)CCSCc1ccc(-c2onc(C)c2NC(=O)OC(C)c2ccccc2Cl)cc1 (centres undefined) = Satisfied
CC(C)(C)C(=O)Nc1ccc2c(c1)CC(=O)N2 = Satisfied
Cc1ncc(-c2cc(C(=O)N(C)Cc3csc(C)n3)c3ccc(F)cc3n2)cn1 = Not satisfied

Could you verify whether the entry `Cc1nn(C)cc1-c1ccnc(N2CCCN(c3ccccc3)CC2)n1` shows z-score of no less than -0.3?
Not satisfied

Could you verify whether the entry `NC(N)=NN=Cc1c(Cl)cccc1Cl` shows z-score of no less than -0.3?
Satisfied

Could you verify whether the entry `Cn1nc(-c2cccnc2)c2[nH]c(-c3ccccc3OC(F)F)nc21` shows z-score of no less than -0.3?
Not satisfied

Could you verify whether the entry `COc1ccc(CN2C[C@H](C(=O)Nc3ccc4c(c3)CCC4)C[C@H](C(=O)N3CCCCC3)C2)cc1OC` shows z-score of no less than -0.3?
Satisfied

Could you verify whether the entry CCn1nc(C(=O)N(C)Cc2ccco2)c2c1CCC(N(C)Cc1ccon1)C2 (centres undefined) shows z-score of no less than -0.3?
Not satisfied

###

assay: growth inhibition, single agents and combos, ICB984, cell-based, cisplatin or BGB combos, synergistic combos for chromothripsis tumors (AID 1671451); conditions: ICB984 medulloblastoma cells, drug combinations, measured here: 5 uM single agent, at 5 µM, stronger effect = higher value;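 further: cells exposed for 96 hours before readout; 0% = vehicle DMSO and 100% = killing by high DMSO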
METRIC_NAME: inhibition (%)
Kindly provide the numeric value in % only, without the unit symbol.

Illustrative cases are given below, each with its answer.
Cc1ccc([N+](=O)[O-])cc1S(=O)(=O)N(C)/N=C\c1cnc2ccc(Br)cn12 = -35
CC(Oc1cc(-c2cnn(C3CCNCC3)c2)cnc1N)c1c(Cl)ccc(F)c1Cl (stereo not given) = -10.6

Given the entry `Nc1ccccc1NC(=O)c1cnccn1` , report its measured inhibition.
-10

Given the entry `Cn1cnc2[nH]c(=O)[nH]c(=O)c21` , report its measured inhibition.
2.87

Given the entry CCC(C)C(=O)OC1CC(C)C=C2C=CC(C)C(CCC3CC(O)CC(=O)O3)C21 (stereo not given) , report its measured inhibition.
-12.3

Given the entry `C[n+]1ccc(-c2c3nc(c(-c4cc[n+](C)cc4)c4ccc([nH]4)c(-c4cc[n+](C)cc4)c4nc(c(-c5cc[n+](C)cc5)c5ccc2[nH]5)C=C4)C=C3)cc1` , report its measured inhibition.
-3.94

Given the entry CC(C)OC(=O)[C@H](C)NP(=O)(OC[C@H]1O[C@@H](n2ccc(=O)[nH]c2=O)C(C)(F)[C@@H]1O)Oc1ccccc1 (stereo not given in full) , report its measured inhibition.
-3.56

Given the entry O=c1[nH]cnc2c1ncn2C1CCC(CO)O1 (stereo not given) , report its measured inhibition.
-17.3

Given the entry Nc1ncn(C2OC(CO)C(O)C2O)c(=O)n1 (stereo not given) , report its measured inhibition.
-4.38

Given the entry `NC(=S)NN=Cc1ncccc1N` , report its measured inhibition.
-38.9

These data points were gathered from PubChem BioAssay.
